Threshold -0.4: log10 vapour pressure (mmHg) strictly smaller gives Fulfilled, otherwise Not fulfilled.

# Molecule, Assigned Class
measured = [
    ("O=S(=O)(Cl)c1ccccc1", "Fulfilled"),
    ("NC(=O)N=NC(N)=O", "Fulfilled"),
    ("CCC(Cl)Cl", "Not fulfilled"),
    ("Fc1ccccc1F", "Not fulfilled"),
    ("c1ccc2c(c1)CCCC2", "Fulfilled"),
    ("CCOC(OCC)OCC", "Not fulfilled"),
    ("O=C(O)c1c(Cl)ccc(Cl)c1Cl", "Fulfilled"),
    ("O=C1C=CC(=O)O1", "Fulfilled"),
    ("C=C/C=C\\CC1=C(C)[C@@H](OC(=O)[C@@H]2[C@@H](C=C(C)C)C2(C)C)CC1=O", "Fulfilled"),
    ("COC(=O)C(Cl)Cl", "Not fulfilled"),
    ("CCC(C)c1ccccc1 (stereo unspecified)", "Not fulfilled"),
    ("Clc1cc2c(cc1Cl)Oc1ccccc1O2", "Fulfilled"),
    ("Cc1cc(C)c(O)cc1C", "Fulfilled"),
    ("CCSc1nc(NC(C)C)nc(NC(C)C)n1", "Fulfilled"),
    ("CC(=O)OC(C)(C)C", "Not fulfilled"),
    ("CCCCOCCCC", "Not fulfilled"),
]

---

Threshold 100 °C: melting point strictly smaller gives true, otherwise false.

# Molecule, Assigned Class
records = [
    ("CCCCCCCCCCCCCCCCI", "true"),
    ("COc1c(Br)cc(Br)cc1Br", "true"),
    ("Nc1cccc(Cl)c1C(=O)O", "false"),
    ("OC(c1ccccc1)(c1ccccc1)C(O)(c1ccccc1)c1ccccc1", "false"),
    ("c1ccc(-c2ccc3ccccc3c2)cc1", "false"),
    ("CCOC(=O)CC(=O)C(C)C", "true"),
    ("FC(F)(F)C(F)(F)C(F)(F)C(F)(F)C(F)(F)C(F)(F)C(F)(F)C(F)(F)I", "true"),
    ("C[C@]12CC[C@H](O)C[C@H]1CC[C@@H]1[C@@H]2CC[C@]2(C)[C@@H](C3=CC(=O)OC3)CC[C@]12O", "false"),
    ("C=CC[C@]1(O)CC[C@H]2[C@@H]3CCC4=CC(=O)CCC4=C3C=C[C@@]21C", "false"),
    ("O=c1cccc2n1CC1CNCC2C1 (configuration not stated)", "false"),
    ("O=C(O)c1ccc(CBr)cc1", "false"),
]

---

Reported melting point values are given for each entry in this list.

# Compound, melting point
measured = [
    ("CC(=O)CCC(=O)O", "33 °C"),
    ("CC1CC(C)(C)CC(OOC(C)(C)C)(OOC(C)(C)C)C1 (stereo not drawn)", "-30 °C"),
    ("BrCc1ccccc1Br", "31 °C"),
    ("CN(C)c1nc(=O)n(C2CCCCC2)c(=O)n1C", "116 °C"),
    ("O=C1c2ccccc2C(=O)c2c(Cl)cccc21", "163 °C"),
    ("O=C1CN(N=Cc2ccc(-c3ccc([N+](=O)[O-])cc3)o2)C(=O)N1", "280 °C"),
    ("C[Si](C)(Cl)O[Si](C)(C)O[Si](C)(C)Cl", "-53 °C"),
    ("O=C1CCC1", "-50.9 °C"),
]

---

Please note: 1 applies when melting point is 40 °C or greater, and -1 applies otherwise.

# Molecule, Assigned Class
data = [
    ("O=C(O)COc1ccc2ccccc2c1", 1),
    ("O=C(O)c1ccc([N+](=O)[O-])cc1", 1),
    ("Cc1ccc(S(=O)(=O)c2coc(S(N)(=O)=O)c2)cc1", 1),
    ("CCNc1cccc(O)c1", 1),
    ("NC(=O)c1cnccn1", 1),
    ("Ic1ccccc1I", -1),
    ("COc1ccc(-c2cc(=O)c3c(O)c(OC)c(O)cc3o2)cc1", 1),
    ("O=C(O)c1cccnc1C(=O)O", 1),
    ("C#CCCCCCCCCCC", -1),
    ("CCC(C)S (stereo not given)", -1),
    ("c1cc(OCC2CO2)cc(OCC2CO2)c1 (stereo not given)", 1),
    ("ClC(C(Cl)(Cl)Cl)C(Cl)(Cl)Cl", -1),
    ("O=S(=O)(Cc1ccccc1)Cc1ccccc1", 1),
    ("Cc1ccc(O)c(C=O)c1", 1),
    ("O=C(O)c1ccc2ccccc2n1", 1),
]

---

Reported melting point values are given for each entry in this list.

# Compound, melting point (°C)
rows = [
    ("COC(=O)C(Cl)Cl", -51.9),
    ("CCC(C)(C)c1ccc(O)cc1", 95),
    ("CCCCCCCCCCCCCC(=O)O", 53.9),
    ("CCCC(C)(COC(N)=O)COC(N)=O", 105),
    ("CC(=O)NC(=O)c1ccccc1O", 148),
    ("CCOC(=O)C(C)C", -88.2),
    ("CN(C)C(=O)NC1CCCCCCC1", 138),
    ("CC(C)CCBr", -112),
    ("CCCCCCCCCCCCCCCC(=O)[O-].[Na+]", 286),
    ("CC(=O)Oc1ccc2c3c1O[C@H]1[C@@H](OC(C)=O)C=C[C@H]4[C@@H](C2)N(C)CC[C@@]341", 173),
    ("O=C(c1ccc(O)cc1O)c1ccc(O)cc1O", 202),
    ("O=C1C=CC(=O)c2c(O)cccc21", 155),
    ("O=C1OC(=O)C2C1C1(Cl)C(Cl)=C(Cl)C2(Cl)C1(Cl)Cl (stereo not given)", 233),
    ("CCN(CC)C(=O)/C(Cl)=C(/C)OP(=O)(OC)OC", -45),
    ("Oc1c(Cl)c(O)c(Cl)c(O)c1Cl", 136),
    ("CCOc1ccc(NC(=O)C(C)O)cc1 (stereo not given)", 118),
    ("Cc1cc(O)cc(Br)c1", 56.5),
    ("Oc1c(Br)c(Br)c(O)c(Br)c1Br", 244),
    ("c1ccc2[nH]nnc2c1", 100),
    ("FC(F)(F)c1nc2c(Cl)c(Cl)ccc2[nH]1", 214),
    ("C=CCCCCCCCCCCCCCCCC", 17.5),
    ("CN(C)c1ccccc1C(=O)O", 72),
    ("NS(=O)(=O)c1ccc(N2CCCCS2(=O)=O)cc1", 181),
    ("CCCCCCCCCCCCCC(CCCCCCCCCC)CCCCCCCCCC", 10.8),
    ("Nc1cc2c(cc1Cl)C(=O)c1ccccc1C2=O", 282),
    ("O=[N+]([O-])c1ccc(CCl)cc1", 71),
    ("C#CCOc1cc(-n2nc(C(C)(C)C)oc2=O)c(Cl)cc1Cl", 131),
    ("CCN(CC)C(=O)C(C)Oc1cccc2ccccc12 (stereo not given)", 75),
    ("CC=CCC", -146),
    ("CN(C)CCc1c[nH]c2ccccc12", 46),
    ("NNC(=O)Nc1ccccc1", 128),
    ("Nc1c(Br)cc([N+](=O)[O-])cc1[N+](=O)[O-]", 154),
    ("c1ccc(Cn2cncn2)cc1", 49),
    ("Cc1cc(O)c2ccccc2c1O", 169),
    ("CN(CCO)c1nc2c(c(=O)n(C)c(=O)n2C)n1C", 105),
    ("O=[N+]([O-])c1ccc2ccccc2c1", 79),
    ("CCCC(O)CCC", -41.2),
    ("OC[C@H]1O[C@@](CO)(O[C@H]2O[C@H](CO)[C@@H](O)[C@H](O)[C@H]2O)[C@@H](O[C@H]2O[C@H](CO)[C@@H](O)[C@H](O)[C@H]2O)[C@@H]1O", 153),
    ("CCc1cccc(C)c1C", -49.5),
    ("CC(=O)c1c(C)c[nH]c1C", 138),
    ("c1ccc(NNc2ccccc2)cc1", 131),
    ("O=c1cc(CO)occ1O", 154),
    ("CCCOc1ccc(O)cc1", 56.5),
    ("NC(=O)c1ccc(N)nc1", 246),
    ("CC(O)CN(CC(C)O)CC(C)O (stereo not given)", 45),
    ("CCOP(=S)(OCC)Oc1nc(Cl)c(Cl)cc1Cl", 42),
    ("CCC(C1CCCCC1)C1CCCCC1", -23.5),
    ("CCOC(=O)C(NC=O)C(=O)OCC", 48.5),
    ("COc1cccc(C(=O)O)c1", 107),
    ("C=C=O", -151),
    ("CCCCOC(=O)c1ccccc1C(=O)OCCCC", -35),
    ("CC1=C(C)C(=O)C(C)=C(C)C1=O", 112),
    ("O=C(O)c1ccc(Cl)cc1Cl", 164),
    ("CC(C(C)(C)C)C(C)(C)C", -38.7),
    ("COc1ccc2c(OC)c3ccoc3nc2c1OC", 177),
    ("Nc1nc(N)c2nc(-c3ccccc3)c(N)nc2n1", 316),
    ("COc1ccc(C(=O)O)c(OC)c1OC", 100),
    ("CC1CCC(C(C)C)C(O)C1 (stereo not given)", 39),
    ("CCCCCCCOC(=O)CCC", -57.5),
    ("CCC(C)(Cl)Cl", -74),
]

Origin of the recorded values: the OPERA property sets (Mansouri et al. 2018)
